system: iPSC-CMs, iPSC-ECs and HUVECs phenotypes; assay: ToxPi 2.0 integration of POD values and physicochemical descriptors; parameters: species or system human; details: ToxPi-scaled (0-1) score; iPSC cardiomyocytes, 24 h
Structures can show the parent of a compound that is named as a salt.
experimentalEndpoint: cm.cam.24hrs

Solved entries:
Clc1ccc(-c2cc(Cl)c(Cl)c(Cl)c2)cc1Cl	0.3565
Clc1cc(Cl)c(-c2cc(Cl)c(Cl)cc2Cl)cc1Cl	0.2888
Oc1ccc(-c2ccc(Cl)cc2)cc1	0.1519
Oc1cc(Cl)cc(-c2cccc(Cl)c2)c1	0.2664

Next item in the queue.
Form field cm.cam.24hrs for item O=S(=O)(O)Oc1ccc(-c2cccc(Cl)c2)cc1Cl [4-PCB 11 sulfate] on iPSC-CMs, iPSC-ECs and HUVECs phenotypes: 0.3798
